- ASSAY_TARGET: IMP-1 (Imipenemase-1) (Serratia marcescens)
- Sequence (P52699 19-246, looked up, species assumed): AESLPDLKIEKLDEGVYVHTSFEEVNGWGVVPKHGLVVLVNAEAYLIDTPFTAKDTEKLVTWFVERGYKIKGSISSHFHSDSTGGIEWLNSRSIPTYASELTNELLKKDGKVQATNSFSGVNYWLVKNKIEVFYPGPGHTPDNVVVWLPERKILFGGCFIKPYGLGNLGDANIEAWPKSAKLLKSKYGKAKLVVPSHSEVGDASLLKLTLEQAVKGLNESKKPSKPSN
- METHOD: Metallo-β-lactamase enzyme inhibition, standard assay protocol
Entries and their IC50 values follow.

The examples below pair each entry with its known result.
{"columns": ["SMILES_INPUT", "ASSAY_TARGET", "ENDPOINT", "VALUE_REPORTED"],
 "data": [
  ["CC(C)c1csc2cc(C(=O)O)[nH]c12", "IMP-1 (Imipenemase-1) (Serratia marcescens)", "IC50", "> 63.1 µM"],
  ["O=C(O)c1cc2scc(Br)c2[nH]1", "IMP-1 (Imipenemase-1) (Serratia marcescens)", "IC50", "> 251 µM"]
]}

Please find the next compound below.
# input Fill in the blank: the reported IC50 of O=C(O)c1cc2scc(C3CC3)c2[nH]1 is ____.
# output > 251 µM
